System name: PKCδ (Homo sapiens, UniProt Q05655)
Sequence (Q05655 whole entry): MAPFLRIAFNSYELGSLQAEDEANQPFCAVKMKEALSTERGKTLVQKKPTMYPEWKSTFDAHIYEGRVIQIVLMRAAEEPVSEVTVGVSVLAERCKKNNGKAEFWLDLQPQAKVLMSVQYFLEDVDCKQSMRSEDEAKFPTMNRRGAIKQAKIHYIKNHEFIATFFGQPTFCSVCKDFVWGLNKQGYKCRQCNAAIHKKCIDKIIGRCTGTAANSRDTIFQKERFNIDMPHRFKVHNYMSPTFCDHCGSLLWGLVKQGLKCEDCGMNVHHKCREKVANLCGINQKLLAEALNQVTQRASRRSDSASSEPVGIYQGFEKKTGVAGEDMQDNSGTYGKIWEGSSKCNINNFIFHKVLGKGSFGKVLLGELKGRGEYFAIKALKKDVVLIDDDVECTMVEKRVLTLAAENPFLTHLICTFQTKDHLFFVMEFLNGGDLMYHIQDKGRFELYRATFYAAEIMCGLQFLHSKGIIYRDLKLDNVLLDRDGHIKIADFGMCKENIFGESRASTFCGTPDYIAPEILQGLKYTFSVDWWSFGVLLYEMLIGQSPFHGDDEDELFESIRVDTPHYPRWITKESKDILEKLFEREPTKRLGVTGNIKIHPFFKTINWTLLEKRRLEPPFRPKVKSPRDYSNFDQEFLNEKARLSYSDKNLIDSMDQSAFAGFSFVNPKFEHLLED
Quantity: Ki (nM)
Numbers only, in nM.

Enquiry: Lab request: please report Ki under test system PKCδ (Homo sapiens, UniProt Q05655) for "CCCCCCCC(=O)O[C@H]1/C(=C/C(=O)OC)C[C@H]2C[C@H](CO)OC(=O)CCCC(=O)OCC(C)(C)[C@]1(O)O2"
Return: 1.7

* * *

System name: PKCα (Homo sapiens)
Quantity: pKi
One number for each entry, as −log10 of the molar value.

Enquiry: Lab request: please report pKi under test system PKCα (Homo sapiens) for "CCCCCCCC(=O)O[C@H]1/C(=C/C(=O)OC)C[C@H]2C[C@H](CO)OC(=O)CCCC(=O)OCC(C)(C)[C@]1(O)O2"
Return: 8.36
